Values compiled from PubChem BioAssay (NCI).

# Tested on: MDA-MB-231 breast
# Experiment summary: NCI tumour cell line growth inhibition, 48 h; in the data active means GI50 below about 0.43 µM; inactive means the rest
Outcomes: active, inactive

{"Molecule": "CCCCCN(CCCCC)CC(O)c1cc(Cl)ccc1OC (centres undefined)", "Label class": "inactive"}
{"Molecule": "CCN(Cc1cc(F)ccc1F)c1ccc(CO)c(Cl)c1", "Label class": "inactive"}
{"Molecule": "CN1CCN(Cc2ccc(NC(=O)c3cncc(C#Cc4cnc(N)cc4C#N)c3)cc2C(F)(F)F)CC1", "Label class": "inactive"}
{"Molecule": "CCOc1ccc2c(c1)C(=O)c1c-2n(CCCBr)c(=O)c2cc([N+](=O)[O-])ccc12", "Label class": "inactive"}
{"Molecule": "C=C/C(C)=C/C[C@]1(C)[C@H](C)[C@@H](OC(=O)CCC)[C@H](O)[C@@]23C(=C[C@H](OC)C[C@@H]12)[C@@H](OC(=O)CCC)O[C@H]3OC(C)=O", "Label class": "inactive"}
{"Molecule": "COC(=O)c1cc2c(cc1Cl)SC1=NN(C)S(=O)N1S2(=O)=O (centres undefined)", "Label class": "inactive"}
{"Molecule": "COc1ccc2c(c1OC)-c1c(c3ccc([N+](=O)[O-])cc3c(=O)n1CCCBr)C2=O", "Label class": "inactive"}
{"Molecule": "O=S1(=O)N(Cc2ccccc2)[C@@H](Cc2ccccc2)[C@H](O)[C@H](O)[C@H](Cc2ccccc2)N1Cc1ccccc1", "Label class": "inactive"}
{"Molecule": "CC1=C2C(=CC(C)(C)[C@@H]2O)C(=O)[C@](C)(O)C12CC2", "Label class": "active"}

* * *

# Tested on: CAKI-1 renal
# Experiment summary: NCI tumour cell line growth inhibition, 48 h; in the data active means GI50 below about 0.43 µM; inactive means the rest
Outcomes: active, inactive

{"Compound": "CN1CCN(Cc2ccc(NC(=O)c3cncc(C#Cc4cnc(N)cc4C#N)c3)cc2C(F)(F)F)CC1", "Label class": "inactive"}
{"Compound": "Cc1ncc(C(=O)Nc2ccc(CN3CCN(C)CC3)c(C(F)(F)F)c2)cc1C#Cc1ccc(N)nc1", "Label class": "active"}
{"Compound": "c1cc(-c2nnc(SSc3ncnc4nc[nH]c34)o2)ccn1", "Label class": "inactive"}
{"Compound": "O=C(Nc1ccc(F)cc1F)c1cc(Cl)ccc1O", "Label class": "inactive"}
{"Compound": "O=C(Nc1ccc(-n2ccc3c(NC(=O)c4ccccc4)ncnc32)cc1)c1cccc(C(F)(F)F)c1", "Label class": "inactive"}
{"Compound": "C=C/C(C)=C/C[C@]1(C)[C@H](C)[C@@H](OC(=O)CCC)[C@H](O)[C@@]23C(=C[C@H](OC)C[C@@H]12)[C@@H](OC(=O)CCC)O[C@H]3OC(C)=O", "Label class": "inactive"}
{"Compound": "CSc1ncc(Br)c(Sc2nc(N)nc3nc[nH]c23)n1", "Label class": "inactive"}
{"Compound": "CC(C)(O)/C=C/C(=O)[C@](C)(O)[C@H]1[C@H](O)C[C@@]2(C)[C@@H]3CC=C4[C@@H](C[C@H](O)C(=O)C4(C)C)[C@]3(C)C(=O)C[C@]12C", "Label class": "inactive"}
{"Compound": "CCN1CCN(Cc2ccc(NC(=O)Nc3nc4ccc(Oc5ccnc(C(=O)NC)c5)cc4s3)cc2C(F)(F)F)CC1", "Label class": "inactive"}
{"Compound": "COc1cccc(CN(C)c2ccc(CO)c(Cl)c2)c1", "Label class": "inactive"}
{"Compound": "[O-]c1ccccc1C=Nc1ccc2c(c1)CCC2.[O-]c1ccccc1C=Nc1ccc2c(c1)CCC2.[O]=[U+2]=[O]", "Label class": "inactive"}
{"Compound": "O=c1c2cc(-c3ccccc3)sc2ncn1Cc1ccc(Cl)c(Cl)c1", "Label class": "inactive"}
{"Compound": "CCCCCN(CCCCC)CC(O)c1cc(Cl)ccc1OC (stereo not drawn)", "Label class": "inactive"}
